# STUDY SYSTEM: T1, CH505w020.14D8gp120
# T1 construct: also called CH505w20.14 gp120
# TEST METHOD NOTES: ELISA
Reported LogAUC values follow for various binders
Answer using only a numeral; do not append any unit.

Record excerpt, results attached:
1. CH493 (antibody, V domains shown, also called CH235.9; DH493) VH: QVRLLQYGGGVKRPGASMTISCVASGYNFNDYYIHWVRQAPGQGLELMGWIDPSGGRTDYAGAFGDRVSMYRDKSMNTLYMDLRSLRSGDTAMYYCVRNVGTAGSLLHYDHWGLGVMVTVSS VL: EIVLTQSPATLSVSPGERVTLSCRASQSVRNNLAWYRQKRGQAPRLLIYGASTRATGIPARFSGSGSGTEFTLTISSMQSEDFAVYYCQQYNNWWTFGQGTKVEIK | 8.15
2. CH241 (antibody, V domains shown) VH: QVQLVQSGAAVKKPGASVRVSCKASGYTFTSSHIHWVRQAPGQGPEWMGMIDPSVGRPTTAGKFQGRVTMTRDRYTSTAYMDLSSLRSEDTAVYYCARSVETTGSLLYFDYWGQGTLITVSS VL: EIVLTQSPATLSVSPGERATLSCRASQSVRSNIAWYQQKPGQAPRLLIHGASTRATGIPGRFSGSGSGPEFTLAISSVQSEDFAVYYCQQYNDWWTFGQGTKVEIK | 13.1

Then there is this binder:
Asked: Name the reported LogAUC value associated with the binder CH235 (antibody, V domains shown, also called CH235_4A) VH: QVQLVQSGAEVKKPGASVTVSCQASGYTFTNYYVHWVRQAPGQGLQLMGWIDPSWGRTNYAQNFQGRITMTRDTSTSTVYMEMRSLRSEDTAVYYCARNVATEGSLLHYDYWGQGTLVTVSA VL: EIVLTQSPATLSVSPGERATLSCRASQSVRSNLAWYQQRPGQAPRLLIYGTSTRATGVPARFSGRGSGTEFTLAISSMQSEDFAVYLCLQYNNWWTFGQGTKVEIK
Given back: 9.91
